TESTED TARGET: SHP2-C SH2;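 also: peptide library displayed on the E. coli surface as eCPX fusions, selected cells deep-sequenced, score is each peptide's frequency after selection divided by its frequency in the input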
ASSAY OVERVIEW: SH2 binding enrichment of the phosphorylated peptide, bacterial display (enrichment ratio); higher = better substrate or ligand; peptides without Tyr show the background
OUTCOME MEASURE: SH2 binding enrichment

DLDLTSIFPNI [PTEN_Y27_Y27S_YF]
0.524
LSQAKYQIRFR [CRLF1_Y272_F268S_YF]
0.78
GYKVRYATGSI [FGFR1_Y210_W213G]
1.11
ESAAIYNPVIY [RHO_Y301_K296E]
0.553
MEKEKYVSFIS [JMJD1C_Y596_YF]
0.831
QPTPGYEVGQR [TSC2_Y1788_E1783Q]
0.666

A = TVLGEYALPKG [CYP24A1_Y407]
B = RLLVVYTWTQR [HBB_Y36_P37T]
C = GFITSYREEEQ
Arrange these sequences by their SH2 binding enrichment, starting with the largest number. Reply with the item labels sorted in the order that was asked for.
B, C, A

---

Test system: c-Abl (mouse)
ASSAY OVERVIEW: phosphorylation enrichment, bacterial display (enrichment ratio); higher = better substrate or ligand; peptides without Tyr show the background
OUTCOME MEASURE: phosphorylation enrichment
// return a plain number; no unit text

Study these solved cases before continuing.
AVLQLYIFVAT [CFTR_Y1014_P1013L]
0.837
YRVDCYKNFVA [FHL1_Y213_C209R]
0.543
GYITSYREEEQ
0.879
PAVGIYNGNIN [CDCP1_Y707_D709G]
1.08
PVQAAYQKVVD [HBB_Y131_A136D]
0.432
NSNAAYEQSHF [LRIF1_Y714]
0.574
IEKLTYIDKWF [CPS1_Y872]
0.619
FIATQYSLRPR [LBR_Y166_YF]
0.525

Please give the documented phosphorylation enrichment of SGKSEYLLPVA [MYLK_Y611_R607G]
1.17

Please give the documented phosphorylation enrichment of FMCKVYSDRQP [FGFR1_Y280_P283R]
0.879

Please give the documented phosphorylation enrichment of VFSSDYFSFVL [USP24_Y2138_YF]
1.93

Please give the documented phosphorylation enrichment of PLKFLYPNIDK [STAT1_Y668_YF]
1.38

Please give the documented phosphorylation enrichment of GEDEPYAEPYA [APBA1_Y183_S184A]
0.915

---

Test system: c-Src
ASSAY OVERVIEW: phosphorylation enrichment, bacterial display (enrichment ratio); higher = better substrate or ligand; peptides without Tyr show the background
Form field: phosphorylation enrichment (one value per entry).
// return a plain number; no unit text

HHTDECEYDEL [TGM1_Y134_Y134C]
0.894

Please give the documented phosphorylation enrichment of QMQNPYSRHSS [MUC13_Y501]
0.472

Please give the documented phosphorylation enrichment of SYCYRYRCAAQ [SUMF1_Y344_R349Q]
0.399

Please give the documented phosphorylation enrichment of EVRAQYEEIAQ [KRT76_Y361]
0.388

---

System: c-Abl (mouse)
ASSAY OVERVIEW: phosphorylation enrichment, bacterial display (enrichment ratio); higher = better substrate or ligand; peptides without Tyr show the background
OUTCOME MEASURE: phosphorylation enrichment
// return a plain number; no unit text

Study these solved cases before continuing.
ISDNACQYMLT [MYH7_Y162_Y162C]
0.679
SVTWTYSPALN [TP53_Y126_C124W]
0.698

Here is another sequence to look at.
Please give the documented phosphorylation enrichment of KANEFYPVVLI [ADAMTS18_Y765_YF]
0.68

---

TESTED TARGET: Fyn (UniProt P06241)
Sequence (P06241 whole entry, looked up): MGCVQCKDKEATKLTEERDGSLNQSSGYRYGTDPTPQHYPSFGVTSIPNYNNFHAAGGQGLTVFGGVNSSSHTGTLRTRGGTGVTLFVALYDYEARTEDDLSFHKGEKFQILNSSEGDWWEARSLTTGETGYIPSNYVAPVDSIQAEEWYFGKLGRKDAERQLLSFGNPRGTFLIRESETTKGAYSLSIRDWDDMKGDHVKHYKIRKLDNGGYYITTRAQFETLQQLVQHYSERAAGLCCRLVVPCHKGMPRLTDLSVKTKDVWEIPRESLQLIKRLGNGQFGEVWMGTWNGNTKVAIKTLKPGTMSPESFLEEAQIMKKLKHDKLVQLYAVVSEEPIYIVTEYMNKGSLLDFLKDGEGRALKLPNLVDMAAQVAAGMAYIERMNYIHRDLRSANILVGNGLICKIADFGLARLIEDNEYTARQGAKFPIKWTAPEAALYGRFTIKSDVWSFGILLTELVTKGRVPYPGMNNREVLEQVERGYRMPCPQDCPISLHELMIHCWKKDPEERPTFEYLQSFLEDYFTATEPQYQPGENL
ASSAY OVERVIEW: phosphorylation enrichment, bacterial display (enrichment ratio); higher = better substrate or ligand; peptides without Tyr show the background
Form field: phosphorylation enrichment (one value per entry).
// return a plain number; no unit text

Study these solved cases before continuing.
CTTIHYNYLCN [TP53_Y234_M237L]
0.51
FFVVRYCWLRR [MPZ_Y181_YF]
0.495
DVQNAYDSNHC [ZFYVE16_Y36]
0.495

Here is another sequence to look at.
Please give the documented phosphorylation enrichment of SIKDKYVTALY [KCNH2_Y611]
0.489

---

TESTED TARGET: MERTK (UniProt Q12866)
Sequence (Q12866 whole entry, looked up): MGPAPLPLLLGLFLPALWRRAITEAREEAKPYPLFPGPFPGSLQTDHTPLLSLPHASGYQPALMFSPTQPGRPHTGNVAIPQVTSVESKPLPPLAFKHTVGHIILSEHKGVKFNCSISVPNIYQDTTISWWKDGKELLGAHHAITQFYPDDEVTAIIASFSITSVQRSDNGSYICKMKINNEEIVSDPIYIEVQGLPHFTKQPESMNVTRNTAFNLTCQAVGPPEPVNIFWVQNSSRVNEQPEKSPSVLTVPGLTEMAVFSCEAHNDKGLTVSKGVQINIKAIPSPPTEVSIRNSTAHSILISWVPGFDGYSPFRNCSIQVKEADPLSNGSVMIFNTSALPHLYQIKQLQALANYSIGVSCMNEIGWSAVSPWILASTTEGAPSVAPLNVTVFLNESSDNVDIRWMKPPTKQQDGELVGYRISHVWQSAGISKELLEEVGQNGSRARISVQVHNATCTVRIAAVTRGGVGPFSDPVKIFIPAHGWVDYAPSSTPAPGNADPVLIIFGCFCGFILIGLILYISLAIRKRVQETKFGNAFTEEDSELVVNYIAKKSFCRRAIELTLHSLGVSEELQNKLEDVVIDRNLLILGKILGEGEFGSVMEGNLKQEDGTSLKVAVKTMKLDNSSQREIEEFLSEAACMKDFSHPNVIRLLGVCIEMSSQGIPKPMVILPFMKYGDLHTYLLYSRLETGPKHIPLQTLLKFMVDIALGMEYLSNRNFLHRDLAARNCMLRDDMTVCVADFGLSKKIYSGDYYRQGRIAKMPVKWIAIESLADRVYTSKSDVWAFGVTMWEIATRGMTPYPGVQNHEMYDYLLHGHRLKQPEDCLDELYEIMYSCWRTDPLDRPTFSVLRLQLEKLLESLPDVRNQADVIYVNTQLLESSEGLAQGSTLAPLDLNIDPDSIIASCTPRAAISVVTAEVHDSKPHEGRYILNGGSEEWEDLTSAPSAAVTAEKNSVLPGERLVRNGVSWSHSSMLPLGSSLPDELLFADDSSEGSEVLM
ASSAY OVERVIEW: phosphorylation enrichment, bacterial display (enrichment ratio); higher = better substrate or ligand; peptides without Tyr show the background
Form field: phosphorylation enrichment (one value per entry).
// return a plain number; no unit text

Study these solved cases before continuing.
TSLAQYDSNSK [BMX_Y216]
0.444
QRIFQYIRSRF [DYRK1B_Y273_Q275R_YF]
0.975
QEKKGYFEDRC [GLUL_Y336_R341C]
0.799

Please give the documented phosphorylation enrichment of GPRKAYELSQR [SETX_Y1297]
0.409

Please give the documented phosphorylation enrichment of DAKTIYDFTDT [PDK1_Y136_A134T]
1.48

Please give the documented phosphorylation enrichment of PLKFLYPNIDK [STAT1_Y668_YF]
0.846

Please give the documented phosphorylation enrichment of LQKNIYSEELR [LMNA_Y211_F206L]
4.38

Please give the documented phosphorylation enrichment of TNFRLYLRSLE [MTM1_Y71_YF]
0.43

---

TESTED TARGET: Fyn (UniProt P06241)
ASSAY OVERVIEW: phosphorylation enrichment, bacterial display (enrichment ratio); higher = better substrate or ligand; peptides without Tyr show the background
Form field: phosphorylation enrichment (one value per entry).
// return a plain number; no unit text

TLEKFYFAFPG [SLC1A1_Y51]
1.9
RICRRYCQVLN [IQCF1_Y144_R141C]
0.748
AALSAYAPQRP [PTPRN2_Y249_A251P]
0.733

Consider the sequence LEFAKYGSLRG [RET_Y809_V804L_YF] tested on Fyn (UniProt P06241); state its phosphorylation enrichment.
0.398

Consider the sequence KTTSGYAGGLS [KRT8_Y419] tested on Fyn (UniProt P06241); state its phosphorylation enrichment.
0.33

---

Test system: Fer (mouse)
ASSAY OVERVIEW: phosphorylation enrichment, bacterial display (enrichment ratio); higher = better substrate or ligand; peptides without Tyr show the background
OUTCOME MEASURE: phosphorylation enrichment
// return a plain number; no unit text

Study these solved cases before continuing.
GYITSYREEEQ
0.616
PTQLPYDHKWE [KIT_Y578]
0.601
NIKKEYTKMVQ [PMS2_Y181_A182T]
0.27
NSFKYYMSDDI [ATRX_Y204_C200S]
0.501

Please give the documented phosphorylation enrichment of TAGFIYEKWEI [TEC_Y360_S359I]
11.6

Please give the documented phosphorylation enrichment of QYNPEYVQQAS [LRRC7_Y1058_H1054Y]
0.939

---

TESTED TARGET: FGFR1 (UniProt P11362)
Sequence (P11362 whole entry, looked up): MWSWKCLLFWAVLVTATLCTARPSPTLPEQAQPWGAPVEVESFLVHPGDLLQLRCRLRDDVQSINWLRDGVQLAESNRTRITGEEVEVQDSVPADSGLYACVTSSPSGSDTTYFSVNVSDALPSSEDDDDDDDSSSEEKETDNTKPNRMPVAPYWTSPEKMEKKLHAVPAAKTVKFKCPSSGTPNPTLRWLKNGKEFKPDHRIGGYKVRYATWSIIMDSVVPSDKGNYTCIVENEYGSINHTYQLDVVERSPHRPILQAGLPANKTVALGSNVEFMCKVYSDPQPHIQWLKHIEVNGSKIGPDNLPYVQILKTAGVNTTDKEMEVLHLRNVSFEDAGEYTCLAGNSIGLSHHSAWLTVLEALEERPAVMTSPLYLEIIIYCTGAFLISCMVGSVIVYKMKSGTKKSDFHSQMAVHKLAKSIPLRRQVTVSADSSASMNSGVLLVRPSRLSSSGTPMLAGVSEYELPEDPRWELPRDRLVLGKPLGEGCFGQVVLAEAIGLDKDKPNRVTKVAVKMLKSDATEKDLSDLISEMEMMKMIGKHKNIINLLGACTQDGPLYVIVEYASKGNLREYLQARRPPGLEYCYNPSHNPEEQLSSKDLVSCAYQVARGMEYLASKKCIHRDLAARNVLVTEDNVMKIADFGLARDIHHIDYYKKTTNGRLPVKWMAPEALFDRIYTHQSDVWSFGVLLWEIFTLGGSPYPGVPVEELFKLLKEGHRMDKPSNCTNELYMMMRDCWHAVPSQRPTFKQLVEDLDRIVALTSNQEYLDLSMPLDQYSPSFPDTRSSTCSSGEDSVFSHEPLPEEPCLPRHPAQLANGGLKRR
ASSAY OVERVIEW: phosphorylation enrichment, bacterial display (enrichment ratio); higher = better substrate or ligand; peptides without Tyr show the background
OUTCOME MEASURE: phosphorylation enrichment
// return a plain number; no unit text

MASISYDYCRV [BST2_Y6_T4I]
1.32
PKGIRYGQGAG [CSRP3_Y73_G72R]
0.339
ACQGKYTPSGQ [ALDOA_Y343]
0.406

Please give the documented phosphorylation enrichment of FRAVKYLQMVG [AVPR2_Y117_C112Y_YF]
0.387

Please give the documented phosphorylation enrichment of ETAENYLGYTA [HSPA9_Y181_H184Y]
0.748

Please give the documented phosphorylation enrichment of FSMGCYEISLE [HMGCL_Y198_G203E_YF]
0.541

Please give the documented phosphorylation enrichment of GYKVRYATGSI [FGFR1_Y210_W213G]
0.416

Please give the documented phosphorylation enrichment of SSREGYVRHHN [FAM83B_Y433_S435R]
0.416

---

Form field: phosphorylation enrichment (one value per entry).
TESTED TARGET: EPHB1 (UniProt P54762)
Sequence (P54762 whole entry, looked up): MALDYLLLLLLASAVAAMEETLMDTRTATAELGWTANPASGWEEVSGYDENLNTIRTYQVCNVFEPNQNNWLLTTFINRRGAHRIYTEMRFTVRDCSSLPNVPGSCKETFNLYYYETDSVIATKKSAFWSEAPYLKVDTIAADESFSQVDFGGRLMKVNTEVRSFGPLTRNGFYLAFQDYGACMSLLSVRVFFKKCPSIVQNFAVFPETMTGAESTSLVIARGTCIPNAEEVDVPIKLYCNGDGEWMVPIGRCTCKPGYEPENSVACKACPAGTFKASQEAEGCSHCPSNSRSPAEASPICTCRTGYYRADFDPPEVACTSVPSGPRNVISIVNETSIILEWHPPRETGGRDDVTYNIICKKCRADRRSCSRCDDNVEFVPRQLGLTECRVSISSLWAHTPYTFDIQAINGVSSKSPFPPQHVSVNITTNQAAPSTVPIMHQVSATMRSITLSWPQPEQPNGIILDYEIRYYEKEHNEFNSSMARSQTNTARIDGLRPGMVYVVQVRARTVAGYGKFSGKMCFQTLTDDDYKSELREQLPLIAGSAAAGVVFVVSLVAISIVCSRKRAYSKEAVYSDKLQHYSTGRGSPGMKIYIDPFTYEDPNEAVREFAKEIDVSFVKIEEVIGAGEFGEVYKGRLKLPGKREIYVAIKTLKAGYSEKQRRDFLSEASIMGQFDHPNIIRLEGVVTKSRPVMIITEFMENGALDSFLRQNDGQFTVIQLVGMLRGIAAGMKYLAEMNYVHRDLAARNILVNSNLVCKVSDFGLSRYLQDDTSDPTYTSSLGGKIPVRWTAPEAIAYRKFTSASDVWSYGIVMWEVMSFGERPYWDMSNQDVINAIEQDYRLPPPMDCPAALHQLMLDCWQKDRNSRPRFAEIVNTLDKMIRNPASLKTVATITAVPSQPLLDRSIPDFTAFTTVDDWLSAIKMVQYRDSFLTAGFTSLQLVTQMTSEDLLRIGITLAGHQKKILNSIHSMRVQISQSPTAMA
ASSAY OVERVIEW: phosphorylation enrichment, bacterial display (enrichment ratio); higher = better substrate or ligand; peptides without Tyr show the background
// return a plain number; no unit text

SIRYNYLLDVL [FGFR4_Y237]
0.394
KDGNGYISVAE [CALM3_Y100_A103V]
0.362
NSNAAYEQSHF [LRIF1_Y714]
0.327
LTTPTFGDLNH [TUBB_Y222_Y222F]
0.407
IMVFVYSRVFQ [ADRB2_Y219]
0.554
NSFKYYMSDDI [ATRX_Y204_C200S]
0.503

Here is another sequence to look at.
Please give the documented phosphorylation enrichment of EADRKYEEVAG [TPM3_Y163_R168G]
0.655

---

TESTED TARGET: EPHB1 (UniProt P54762)
ASSAY OVERVIEW: phosphorylation enrichment, bacterial display (enrichment ratio); higher = better substrate or ligand; peptides without Tyr show the background
Form field: phosphorylation enrichment (one value per entry).
// return a plain number; no unit text

Study these solved cases before continuing.
PGVNYYFRVSA
0.715
DVQNAYDSNHC [ZFYVE16_Y36]
0.505
ACCLLYRGDVV [TUBA4A_Y319]
0.507

Please give the documented phosphorylation enrichment of TNITEYCRDLI [RECQL_Y492_K487T]
0.614

Please give the documented phosphorylation enrichment of MEKEKYVSYIS [JMJD1C_Y596]
0.571

Please give the documented phosphorylation enrichment of FRKNTYNVKST [SYNE2_Y575_I574T_YF]
0.425

Please give the documented phosphorylation enrichment of FVFSFYHAFSG [ACTN4_Y265_S262F_YF]
0.808

Please give the documented phosphorylation enrichment of NDFGNYNQQPS [HNRNPA2B1_Y306]
0.691

Please give the documented phosphorylation enrichment of PPDGEYFTLQI [TP53_Y327_L323P]
1.19

Please give the documented phosphorylation enrichment of RSDSSYRMSAT [NHS_Y1532]
0.592

Please give the documented phosphorylation enrichment of PSAELYSNALP [PDGFRB_Y716]
2.63

Please give the documented phosphorylation enrichment of SVMAEYGLYAA [VSX2_Y219_G223A]
3.29

Please give the documented phosphorylation enrichment of SIKDKYVTVLF [KCNH2_Y611_A614V_YF]
0.481

Please give the documented phosphorylation enrichment of TLQRMYGCDVG [HLA-B_Y123_S121R]
0.535

Please give the documented phosphorylation enrichment of KGYCGYSYDDI [TMEM230_Y110_R108C]
0.557

Please give the documented phosphorylation enrichment of ISIFRYAKGQP [MPZ_Y82_H81R]
0.461

Please give the documented phosphorylation enrichment of EQKKNYNAMKK [SCN5A_Y1495_Y1494N]
0.427

Please give the documented phosphorylation enrichment of PVPKTYDMLNA [PKP2_Y108_K112N]
0.512

These data points were gathered from the supplement of paper PMC10065799.
